Below are pIC50 values recorded for TYK2 (Homo sapiens (Human)).
pIC50: −log10 of the molar value.

# get_value(readout='pIC50', item= Cc1cc(Nc2ncc(C)c(N3CC(CC#N)(N4CCCN5CCCC5C4)C3)n2)sn1 (stereo not drawn) [E115a] ) > 7.30

# get_value(readout='pIC50', item= Cc1cc(Nc2ncc(C)c(N3CC(CC#N)(N4CCN(C(C)C)CC4)C3)n2)sn1 ) > 7.30

# get_value(readout='pIC50', item= Cc1cnc(Nc2cnn(C)c2)nc1N1CC(CC(F)F)(C2CC2)C1 [E165a] ) > 8.00

# get_value(readout='pIC50', item= Cc1cc(Nc2ncc(C)c(N3CC(CC#N)(N4C5CCCC4C5)C3)n2)sn1 ) > 7.70

# get_value(readout='pIC50', item= Cc1cc(Nc2ncc(C)c(N3CC(CC#N)(N4CC5(C4)CC5(F)F)C3)n2)sn1 [E88a] ) > 8.00

New cases:
# get_value(readout='pIC50', item= Cc1cc(Nc2ncc(C)c(N3CC(CC#N)(N4CCC(F)CC4)C3)n2)sn1 ) > 8.00

# get_value(readout='pIC50', item= Cc1cnc(Nc2cnn(C)c2)nc1N1CC(CC#N)(N2CCN(C)CC2)C1 ) > 7.70

# get_value(readout='pIC50', item= Cc1cnc(Nc2cnn(C)c2)nc1N1CC(CC#N)(N2CCN3CC(F)(F)C[C@H]3C2)C1 [E157a] ) > 8.00

# get_value(readout='pIC50', item= Cc1cc(Nc2ncc(C)c(N3CC(CC#N)(N4CCCC5(COC5)C4)C3)n2)sn1 ) > 8.00

* * *

pIC50 by entry:
- system: TYK2 (Homo sapiens (Human), UniProt P29597)
- Sequence (P29597 whole entry, species assumed): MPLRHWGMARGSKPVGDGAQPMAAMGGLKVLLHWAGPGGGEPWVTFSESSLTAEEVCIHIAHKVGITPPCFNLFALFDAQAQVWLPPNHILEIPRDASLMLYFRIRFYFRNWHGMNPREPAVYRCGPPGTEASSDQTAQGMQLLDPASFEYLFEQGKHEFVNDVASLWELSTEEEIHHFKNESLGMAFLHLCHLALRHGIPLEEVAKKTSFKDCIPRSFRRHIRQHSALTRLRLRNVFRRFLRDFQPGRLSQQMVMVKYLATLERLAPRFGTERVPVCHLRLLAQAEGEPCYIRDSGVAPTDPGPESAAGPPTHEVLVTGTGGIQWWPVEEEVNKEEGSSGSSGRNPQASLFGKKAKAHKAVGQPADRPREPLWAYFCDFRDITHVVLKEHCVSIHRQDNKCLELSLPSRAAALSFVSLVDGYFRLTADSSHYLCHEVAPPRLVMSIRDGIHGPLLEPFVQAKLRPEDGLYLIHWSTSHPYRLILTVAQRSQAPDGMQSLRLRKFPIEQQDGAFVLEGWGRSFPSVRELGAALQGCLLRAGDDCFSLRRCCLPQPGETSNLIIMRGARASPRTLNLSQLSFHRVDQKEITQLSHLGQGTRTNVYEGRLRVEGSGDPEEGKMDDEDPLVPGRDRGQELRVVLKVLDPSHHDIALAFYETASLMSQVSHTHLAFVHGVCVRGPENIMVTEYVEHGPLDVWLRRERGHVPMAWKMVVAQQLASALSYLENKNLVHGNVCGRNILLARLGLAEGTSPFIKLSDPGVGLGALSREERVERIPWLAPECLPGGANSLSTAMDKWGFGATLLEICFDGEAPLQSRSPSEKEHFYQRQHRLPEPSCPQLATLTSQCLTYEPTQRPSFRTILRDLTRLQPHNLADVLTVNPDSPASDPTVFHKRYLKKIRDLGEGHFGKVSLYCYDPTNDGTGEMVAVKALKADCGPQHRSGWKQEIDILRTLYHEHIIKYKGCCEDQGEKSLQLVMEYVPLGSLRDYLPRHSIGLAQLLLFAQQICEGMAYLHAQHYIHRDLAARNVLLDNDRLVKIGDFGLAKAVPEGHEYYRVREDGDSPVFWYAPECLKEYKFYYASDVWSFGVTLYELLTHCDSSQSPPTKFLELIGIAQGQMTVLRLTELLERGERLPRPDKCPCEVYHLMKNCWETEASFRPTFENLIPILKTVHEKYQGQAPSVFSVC
pIC50: −log10 of the molar value.

Recorded results for 3 compounds are shown here.
Request: pIC50, test system TYK2 (Homo sapiens (Human), UniProt P29597), entry Cc1cc(Nc2ncc(C)c(N3CC(CC#N)(NCC4CCC(F)(F)C4)C3)n2)sn1 (stereo not drawn) > 8.00

Request: pIC50, test system TYK2 (Homo sapiens (Human), UniProt P29597), entry Cc1cc(Nc2ncc(C)c(N3CC(CC#N)(NC(=O)c4cccnc4)C3)n2)sn1 > 7.52

Request: pIC50, test system TYK2 (Homo sapiens (Human), UniProt P29597), entry C#CCC1(O)CN(c2nc(Nc3cc(C)ns3)ncc2C)C1 [E63a] > 7.30

New cases:
Request: pIC50, test system TYK2 (Homo sapiens (Human), UniProt P29597), entry Cc1cc(Nc2ncc(C)c(N3CC(CC#N)(OC4CC5(CC5)C4)C3)n2)sn1 [E99a] > 8.00

Request: pIC50, test system TYK2 (Homo sapiens (Human), UniProt P29597), entry Cc1cnc(Nc2cnn(C)c2)nc1N1CC(CC#N)(N2CCC3C(CC2)C3(F)F)C1 (stereo not drawn) [E160a] > 8.00

Request: pIC50, test system TYK2 (Homo sapiens (Human), UniProt P29597), entry Cc1cnc(Nc2ccc3c(c2)B(O)OC3)nc1N1CC(CC#N)(N2CCN3C[C@H](F)C[C@H]3C2)C1 > 7.52

Request: pIC50, test system TYK2 (Homo sapiens (Human), UniProt P29597), entry Cc1cc(Nc2ncc(C)c(N3CC(CCO)(N4CCN5CCC[C@H]5C4)C3)n2)sn1 [E103a] > 8.00

Request: pIC50, test system TYK2 (Homo sapiens (Human), UniProt P29597), entry Cc1cc(Nc2ncc(C)c(N3CC(CC#N)(N4CC5CN(C)CC5C4)C3)n2)sn1 (stereo not drawn) [E105a] > 7.30

Request: pIC50, test system TYK2 (Homo sapiens (Human), UniProt P29597), entry Cc1cc(Nc2ncc(C)c(N3CC(CC#N)(N4C[C@H]5CN(C)C[C@H]5C4)C3)n2)sn1 [E104a] > 7.00

* * *

Below are IC50 values recorded for JAK1 (Homo sapiens (Human)).

Recorded results for 5 compounds are shown here.
# get_value(readout='IC50', item= Cc1cc(Nc2ncc(C)c(N3CC(CC#N)(N4C[C@@H](C)N(C)[C@@H](C)C4)C3)n2)sn1 [E34] ) < 50 nM

# get_value(readout='IC50', item= Cc1cc(Nc2ncc(C)c(N3CC(CC#N)(N4CCN(C)[C@@H](C)C4)C3)n2)sn1 [E52A] ) < 20 nM

# get_value(readout='IC50', item= Cc1cc(Nc2ncc(C)c(N3CC(CC#N)(N4CC5(C4)CC(F)(F)CO5)C3)n2)sn1 [E112a] ) < 50 nM

# get_value(readout='IC50', item= Cc1cc(Nc2ncc(C)c(N3CC(CC#N)(N4CCC5C(CC4)C5(F)F)C3)n2)sn1 (centres unmarked) [E52E] ) < 10 nM

# get_value(readout='IC50', item= Cc1cc(Nc2ncc(C)c(N3CC(CC#N)(N4CCN5CCOC[C@H]5C4)C3)n2)sn1 [E78a] ) < 10 nM

New cases:
# get_value(readout='IC50', item= Cc1cc(Nc2ncc(C)c(N3CC(CC#N)(N4CCN5CC(C)(C)C[C@H]5C4)C3)n2)sn1 [E111a] ) < 10 nM

# get_value(readout='IC50', item= COC(=O)CC1(N2CCN3CCC[C@H]3C2)CN(c2nc(Nc3cc(C)ns3)ncc2C)C1 [E100a] ) < 10 nM

# get_value(readout='IC50', item= Cc1cc(Nc2ncc(C)c(N3CC(CC#N)(N4C[C@@H]5OCCO[C@@H]5C4)C3)n2)sn1 [E92a] ) < 10 nM

* * *

Below are IC50 values recorded for JAK1 (Homo sapiens (Human), UniProt P23458).

# get_value(readout='IC50', item= Cc1cc(Nc2ncc(C)c(N3CC(CC#N)(N4CCN5C[C@@H](F)C[C@H]5C4)C3)n2)sn1 [E52B] ) < 0.01 µM

# get_value(readout='IC50', item= CO[C@H]1C[C@H]2CN(C3(CC#N)CN(c4nc(Nc5cc(C)ns5)ncc4C)C3)CCN2C1 [E71a] ) < 0.01 µM

# get_value(readout='IC50', item= Cc1cc(Nc2ncc(C)c(N3CC(CC#N)(N4CC5OCCN(C)C5C4)C3)n2)sn1 (centres unmarked) [E98a] ) < 0.05 µM

# get_value(readout='IC50', item= Cc1cnc(Nc2ccc(CN(C)C)cc2)nc1N1CC(C)(NC(=O)c2cccc(F)c2)C1 [E308] ) < 0.1 µM

# get_value(readout='IC50', item= Cc1cnc(Nc2cnn(C)c2)nc1N1CC(CC#N)(N2CCN3CCCC[C@H]3C2)C1 [E171a] ) < 0.01 µM

# get_value(readout='IC50', item= Cc1cnc(Nc2cnn(C)c2)nc1N1CC(CCO)(N2CCN3C[C@H](F)C[C@H]3C2)C1 [E167a] ) < 0.05 µM

New cases:
# get_value(readout='IC50', item= Cc1cnc(Nc2cnn(C)c2)nc1N1CC(C)(NC(=O)c2cccc(F)c2)C1 [E307] ) < 0.02 µM

# get_value(readout='IC50', item= Cc1cc(Nc2ncc(C)c(N3C4CC3CN(CCC#N)C4)n2)sn1 [E117-AD] ) < 1 µM

# get_value(readout='IC50', item= Cc1cc(Nc2ncc(C)c(N3CC(CC#N)(NC(=O)c4ccc(F)c(F)c4)C3)n2)sn1 [E313] ) < 0.02 µM

# get_value(readout='IC50', item= Cc1cnc(Nc2cnn(C)c2)nc1N1CC(CC#N)(N2CCn3cccc3C2)C1 [E164a] ) < 0.01 µM

* * *

IC50 by entry:
- system: JAK1 (Homo sapiens (Human))
- Sequence (P23458 whole entry, species assumed): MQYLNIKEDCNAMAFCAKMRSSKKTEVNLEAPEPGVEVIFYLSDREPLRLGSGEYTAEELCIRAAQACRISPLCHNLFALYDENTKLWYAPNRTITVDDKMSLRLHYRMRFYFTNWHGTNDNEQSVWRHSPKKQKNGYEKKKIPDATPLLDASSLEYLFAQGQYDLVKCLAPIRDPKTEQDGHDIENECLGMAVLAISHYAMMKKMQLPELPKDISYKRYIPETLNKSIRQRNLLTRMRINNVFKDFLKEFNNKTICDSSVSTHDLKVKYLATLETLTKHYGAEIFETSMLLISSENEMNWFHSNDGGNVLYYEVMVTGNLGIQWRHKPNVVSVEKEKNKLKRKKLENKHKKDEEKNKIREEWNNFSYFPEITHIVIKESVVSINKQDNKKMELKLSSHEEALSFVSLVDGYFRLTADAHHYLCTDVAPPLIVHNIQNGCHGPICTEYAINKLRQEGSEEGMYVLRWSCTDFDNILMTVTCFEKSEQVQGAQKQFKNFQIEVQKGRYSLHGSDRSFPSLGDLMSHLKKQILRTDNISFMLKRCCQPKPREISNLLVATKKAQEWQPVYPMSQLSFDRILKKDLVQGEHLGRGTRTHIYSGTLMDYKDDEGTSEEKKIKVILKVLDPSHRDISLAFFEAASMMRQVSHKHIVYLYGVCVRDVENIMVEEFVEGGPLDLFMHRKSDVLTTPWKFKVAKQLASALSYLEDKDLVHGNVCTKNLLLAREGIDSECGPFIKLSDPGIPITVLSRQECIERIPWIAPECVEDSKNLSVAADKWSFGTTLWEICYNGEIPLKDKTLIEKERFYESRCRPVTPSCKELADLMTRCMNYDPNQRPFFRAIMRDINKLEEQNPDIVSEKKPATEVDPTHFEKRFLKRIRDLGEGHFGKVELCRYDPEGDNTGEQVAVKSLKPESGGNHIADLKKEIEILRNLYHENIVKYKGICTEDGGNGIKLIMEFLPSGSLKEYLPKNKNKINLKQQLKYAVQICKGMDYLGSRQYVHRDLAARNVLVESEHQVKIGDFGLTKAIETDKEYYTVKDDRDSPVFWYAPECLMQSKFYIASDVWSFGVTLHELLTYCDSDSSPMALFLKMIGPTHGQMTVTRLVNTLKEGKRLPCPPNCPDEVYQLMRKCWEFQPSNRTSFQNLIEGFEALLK

Request: IC50, test system JAK1 (Homo sapiens (Human)), entry Cc1cc(Nc2ncc(C)c(N3CC(CC#N)(N4CCC5(CC4)CC5)C3)n2)sn1 [E39] < 10 nM

Request: IC50, test system JAK1 (Homo sapiens (Human)), entry Cc1cnc(Nc2ccc(C3(O)COC3)cc2)nc1N1CC(CC#N)(N2CCN(C)CC2)C1 [E79a] < 50 nM

Request: IC50, test system JAK1 (Homo sapiens (Human)), entry Cc1cnc(Nc2cnn(C)c2)nc1N1CC(CCC#N)(N2CCN3C[C@H](F)C[C@H]3C2)C1 [E168a] < 20 nM

New cases:
Request: IC50, test system JAK1 (Homo sapiens (Human)), entry Cc1cnc(Nc2cnn(C)c2)nc1N1CC(CC#N)(N2CCN3CC(C)(C)C[C@H]3C2)C1 [E173a] < 10 nM

Request: IC50, test system JAK1 (Homo sapiens (Human)), entry COc1cnc(Nc2cc(C)ns2)nc1N1CC(CC#N)(N2CCCCC2)C1 [E24] < 50 nM

Request: IC50, test system JAK1 (Homo sapiens (Human)), entry Cc1cnc(Nc2cnn(C)c2)nc1N1CC(CC#N)(N[C@H]2CC[C@H](NS(C)(=O)=O)C2)C1 [E306] < 120 nM

Request: IC50, test system JAK1 (Homo sapiens (Human)), entry Cc1cc(Nc2ncc(C)c(N3CC(CC#N)(N4CCN5CCC5C4)C3)n2)sn1 (centres unmarked) [E89a] < 100 nM

Request: IC50, test system JAK1 (Homo sapiens (Human)), entry Cc1cnc(Nc2cnn(C)c2)nc1N1CC(CC#N)(NCc2cccc(Cl)c2)C1 [E351] < 20 nM
